Origin of measurements: paper PMC5725665

assay_target: KDM2A (Homo sapiens)
Construct: isolated enzyme
assay_summary: biochemical
Set-up: RapidFire MS histone peptide demethylation assay
run_parameters: inhibitor
property_label: KDM2A RapidFire pIC50

> print(dat)
                                   compound          assay.target         property.label  result
1  CC(=O)N1c2ccccc2[C@](C#N)(c2ccccc2)[C@H]1c1ccc(C#CCCCCCN2CCCC2)o1 (relative stereo) [compound 132, 132]  KDM2A (Homo sapiens)  KDM2A RapidFire pIC50   5.990
2  N#C[C@]1(c2ccccc2)c2ccccc2N[C@@H]1c1cncc(C#CCCCCCN2CCCC2)c1 (relative stereo) [compound 137, 137]  KDM2A (Homo sapiens)  KDM2A RapidFire pIC50   5.884
3  CC(=O)N1c2ccccc2[C@@](C#N)(c2ccccc2)[C@H]1c1cccc(/C=C/CCCCCN2CCCC2)c1 (relative stereo) [compound 126, 126]  KDM2A (Homo sapiens)  KDM2A RapidFire pIC50   5.983
4  N#CCC(=O)N1c2ccccc2[C@](C#N)(c2ccccc2)[C@H]1c1cncc(CCCCCCCN2CCCC2)c1 (relative stereo) [compound 139, 139]  KDM2A (Homo sapiens)  KDM2A RapidFire pIC50   6.368
5  N#C[C@]1(c2ccccc2)c2ccccc2N[C@@H]1c1cncc(CCCCCCCN2CCCC2)c1 (relative stereo) [compound 142, 142]  KDM2A (Homo sapiens)  KDM2A RapidFire pIC50   6.708
6  CC(=O)N1c2ccccc2[C@@](C#N)(c2ccccc2)[C@@H]1c1cncc(OCCCCCCCN2CCCC2)c1 [(S,S)-3]  KDM2A (Homo sapiens)  KDM2A RapidFire pIC50   6.401

###

assay_target: SPIN1 (Homo sapiens, UniProt Q9Y657)
Sequence (Q9Y657 whole entry): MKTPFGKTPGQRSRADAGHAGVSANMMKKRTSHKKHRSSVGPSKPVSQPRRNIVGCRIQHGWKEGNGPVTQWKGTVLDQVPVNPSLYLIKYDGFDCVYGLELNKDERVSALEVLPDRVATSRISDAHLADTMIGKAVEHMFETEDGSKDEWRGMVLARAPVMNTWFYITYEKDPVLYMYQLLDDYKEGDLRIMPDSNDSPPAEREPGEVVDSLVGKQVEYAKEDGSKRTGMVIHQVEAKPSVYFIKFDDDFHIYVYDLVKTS
pIC50: −log10 of the molar value.
property_label: pIC50

> print(dat)
                                   compound                          assay.target  property.label  result
1  CC(=O)N1c2ccccc2[C@@](C#N)(c2ccccc2)[C@@H]1c1cncc(CCCCCCCN2CCCC2)c1 [(S,S)-6]  SPIN1 (Homo sapiens, UniProt Q9Y657)           pIC50  < 4.70

###

assay_target: KDM2A (Homo sapiens)
Construct: isolated enzyme
assay_summary: biochemical
Parameters: RapidFire MS histone peptide demethylation assay
run_parameters: read-out: KDM2A RapidFire pIC50 (converted)
hey, just use Y if measured IC50 is less than 1000 nM, otherwise N

> print(dat)
                                   molecule  class.assignment
1  N#C[C@]1(c2ccccc2)c2ccccc2N(C(=O)c2ccccc2)[C@@H]1c1cccc(OCCCCCCCN2CCCC2)c1 (racemic)                 N
2  CC(=O)N1c2ccccc2[C@](C#N)(c2ccccc2)[C@H]1c1cccc(OCCCCN2CCCC2)c1 (racemic)                 N
3  N#C[C@]1(c2ccccc2)c2ccccc2N(C(=O)c2ccc(C(F)(F)F)cc2)[C@@H]1c1cccc(OCCCCCCCN2CCCC2)c1 (racemic)                 N
4  CC(C)CC(=O)N1c2ccccc2[C@](C#N)(c2ccccc2)[C@H]1c1cccc(OCCCCCCCN2CCCC2)c1 (racemic)                 N
5  N#C[C@]1(c2ccccc2)c2ccccc2N(C(=O)c2ccco2)[C@@H]1c1cccc(OCCCCCCCN2CCCC2)c1 (racemic)                 Y

###

The entries below are paired with their reported inhibition at 50 µM.
assay_target: JARID1A (KDM5A) (Homo sapiens)
Sequence (P29375 whole entry): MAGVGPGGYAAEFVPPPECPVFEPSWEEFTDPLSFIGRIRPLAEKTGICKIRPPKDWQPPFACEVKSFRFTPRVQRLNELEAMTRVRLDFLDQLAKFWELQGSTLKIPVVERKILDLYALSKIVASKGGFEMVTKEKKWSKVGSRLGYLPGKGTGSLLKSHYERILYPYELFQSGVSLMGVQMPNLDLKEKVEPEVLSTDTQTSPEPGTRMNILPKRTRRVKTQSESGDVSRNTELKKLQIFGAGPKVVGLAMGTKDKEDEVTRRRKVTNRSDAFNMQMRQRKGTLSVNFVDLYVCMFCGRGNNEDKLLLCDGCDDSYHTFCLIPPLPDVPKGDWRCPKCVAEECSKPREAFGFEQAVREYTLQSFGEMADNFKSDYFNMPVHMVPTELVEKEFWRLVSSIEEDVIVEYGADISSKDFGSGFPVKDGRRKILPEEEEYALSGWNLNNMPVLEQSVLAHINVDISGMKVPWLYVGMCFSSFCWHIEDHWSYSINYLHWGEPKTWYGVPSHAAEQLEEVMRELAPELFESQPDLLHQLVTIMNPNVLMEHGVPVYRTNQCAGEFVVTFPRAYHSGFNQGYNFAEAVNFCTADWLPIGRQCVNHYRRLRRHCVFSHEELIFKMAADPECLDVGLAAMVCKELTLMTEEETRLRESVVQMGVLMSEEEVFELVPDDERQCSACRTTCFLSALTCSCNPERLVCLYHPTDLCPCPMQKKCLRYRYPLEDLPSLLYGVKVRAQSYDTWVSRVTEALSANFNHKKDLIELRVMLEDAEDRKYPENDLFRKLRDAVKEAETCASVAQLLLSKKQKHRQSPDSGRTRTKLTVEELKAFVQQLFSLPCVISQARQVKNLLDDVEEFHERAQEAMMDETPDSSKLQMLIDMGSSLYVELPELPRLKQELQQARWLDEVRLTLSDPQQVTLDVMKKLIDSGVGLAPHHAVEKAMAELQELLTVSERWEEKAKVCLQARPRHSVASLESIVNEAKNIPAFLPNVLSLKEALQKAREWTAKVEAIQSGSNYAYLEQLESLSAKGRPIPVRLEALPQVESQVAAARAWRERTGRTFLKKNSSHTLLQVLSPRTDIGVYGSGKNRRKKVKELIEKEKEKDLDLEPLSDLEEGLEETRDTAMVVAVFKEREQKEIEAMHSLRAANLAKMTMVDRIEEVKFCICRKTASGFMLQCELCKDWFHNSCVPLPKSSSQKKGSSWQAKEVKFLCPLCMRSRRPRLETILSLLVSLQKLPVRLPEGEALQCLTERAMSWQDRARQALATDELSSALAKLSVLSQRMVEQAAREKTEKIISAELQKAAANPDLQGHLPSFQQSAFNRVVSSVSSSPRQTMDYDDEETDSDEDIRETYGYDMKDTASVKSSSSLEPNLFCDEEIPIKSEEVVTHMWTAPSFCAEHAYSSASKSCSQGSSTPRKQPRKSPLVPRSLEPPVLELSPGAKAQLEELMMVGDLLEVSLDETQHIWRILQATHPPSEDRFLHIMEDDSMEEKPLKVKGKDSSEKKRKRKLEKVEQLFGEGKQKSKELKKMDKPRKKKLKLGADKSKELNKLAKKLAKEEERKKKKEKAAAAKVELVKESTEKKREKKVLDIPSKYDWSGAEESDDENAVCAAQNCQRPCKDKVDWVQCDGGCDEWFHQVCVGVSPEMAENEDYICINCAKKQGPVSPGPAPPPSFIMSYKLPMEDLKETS
assay_summary: biochemical
Set-up: AlphaScreen histone demethylase activity assay
property_label: inhibition at 50 µM (%)

> print(dat)
                                   compound       property.label  numeric.readout
1  CC(=O)N1c2ccccc2[C@](C#N)(c2ccccc2)[C@H]1c1cncc(CCCCCCCN2CCCC2)c1 (racemic) [compound 6, 6]  inhibition at 50 µM             25.5
2  CC(=O)N1c2ccccc2C(C#N)(c2ccccc2)C1c1cncc(-c2cn(CCCCCN3CCCC3)nn2)c1 (stereo not shown)  inhibition at 50 µM             39.5
3  CC(=O)N1c2ccccc2[C@](C#N)(c2ccccc2)[C@H]1c1cncc(/C=C/CCCCCN2CCCC2)c1 (racemic)  inhibition at 50 µM             39.1
4  CC(=O)N1c2ccccc2[C@](C#N)(c2ccccc2)[C@H]1c1cncc(OCCCCCCCN2CCCC2)c1 (racemic)  inhibition at 50 µM               24
5  CC(=O)N1c2ccccc2[C@](C#N)(c2ccccc2)[C@H]1c1cncc(C#CCCCCCN2CCCC2)c1 (racemic)  inhibition at 50 µM               39
6  CC(=O)N1c2ccccc2[C@](C#N)(c2ccccc2)[C@H]1c1ccc(CCCCCCCN2CCCC2)o1 (racemic)  inhibition at 50 µM             47.5
7  CC(=O)N1c2ccccc2[C@](C#N)(c2ccccc2)[C@H]1c1cncc(CCCCCCCN2CCCC2)c1 [(R,R)-6]  inhibition at 50 µM               40

###

assay_target: JMJD2A (KDM4A) (Homo sapiens)
Sequence (O75164 whole entry): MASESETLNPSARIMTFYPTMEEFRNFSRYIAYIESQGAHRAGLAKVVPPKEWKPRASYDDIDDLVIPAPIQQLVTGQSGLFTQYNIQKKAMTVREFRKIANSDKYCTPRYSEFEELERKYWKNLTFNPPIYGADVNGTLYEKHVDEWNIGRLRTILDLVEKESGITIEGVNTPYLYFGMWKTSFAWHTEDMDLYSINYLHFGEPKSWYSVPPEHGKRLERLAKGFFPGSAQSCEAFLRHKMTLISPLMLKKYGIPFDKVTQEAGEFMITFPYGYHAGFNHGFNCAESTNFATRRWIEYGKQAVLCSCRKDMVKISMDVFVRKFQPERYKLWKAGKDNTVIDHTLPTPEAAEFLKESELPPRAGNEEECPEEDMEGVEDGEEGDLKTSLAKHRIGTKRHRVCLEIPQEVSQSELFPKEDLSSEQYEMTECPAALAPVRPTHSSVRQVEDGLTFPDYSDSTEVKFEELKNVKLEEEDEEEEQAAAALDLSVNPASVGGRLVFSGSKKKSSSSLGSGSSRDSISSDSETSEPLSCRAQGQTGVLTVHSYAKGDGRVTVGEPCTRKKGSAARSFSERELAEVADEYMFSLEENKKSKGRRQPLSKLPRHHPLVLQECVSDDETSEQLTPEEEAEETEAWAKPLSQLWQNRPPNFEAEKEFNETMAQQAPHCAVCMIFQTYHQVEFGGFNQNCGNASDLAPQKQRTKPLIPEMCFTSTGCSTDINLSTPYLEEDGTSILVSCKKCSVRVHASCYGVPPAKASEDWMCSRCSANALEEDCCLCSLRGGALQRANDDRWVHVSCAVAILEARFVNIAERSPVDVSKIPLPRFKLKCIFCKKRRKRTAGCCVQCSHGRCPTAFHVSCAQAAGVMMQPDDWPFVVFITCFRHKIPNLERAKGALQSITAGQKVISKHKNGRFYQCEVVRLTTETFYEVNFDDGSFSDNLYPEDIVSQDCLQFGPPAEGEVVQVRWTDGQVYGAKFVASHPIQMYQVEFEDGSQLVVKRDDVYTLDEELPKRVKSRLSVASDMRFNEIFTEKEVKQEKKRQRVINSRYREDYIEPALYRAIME
assay_summary: biochemical
Parameters: AlphaScreen histone demethylase activity assay
run_parameters: read-out: KDM4A % Inhib. (18.75 uM)
property_label: inhibition at 18.75 µM (%)

> print(dat)
                                   molecule  numeric.readout
1  CC(=O)N1c2ccccc2C(C#N)(c2ccccc2)C1c1ccc(C#CCCCCCN2CCCC2)o1 (centres unmarked)             19.8
2  CC(=O)N1c2ccccc2[C@](C#N)(c2ccccc2)[C@H]1c1cncc(CCCCCCCN2CCCC2)c1 (racemic) [compound 6, 6]             -1.1
3  CC(=O)N1c2ccccc2[C@](C#N)(c2ccccc2)[C@H]1c1ccc(CCCCCCCN2CCCC2)o1 (racemic)              8.5
4  CC(=O)N1c2ccccc2[C@@](C#N)(c2ccccc2)[C@H]1c1cncc(OCCCCCCCN2CCCC2)c1 (racemic)            -9.59
5  CC(=O)N1c2ccccc2[C@](C#N)(c2ccccc2)[C@H]1c1cccc(/C=C/CCCCCN2CCCC2)c1 (racemic)              3.4
6  CC(=O)N1c2ccccc2[C@](C#N)(c2ccccc2)[C@H]1c1cncc(C#CCCCCCN2CCCC2)c1 (racemic)             10.2
7  CC(=O)N1c2ccccc2[C@@](C#N)(c2ccccc2)[C@H]1c1cccc(/C=C/CCCCCN2CCCC2)c1 (relative stereo)             27.8
8  CC(=O)N1c2ccccc2C(C#N)(c2ccccc2)C1c1cc(CCCCCCCN2CCCC2)co1 (centres unmarked)             21.8

###

assay_target: KDM2A (Homo sapiens, UniProt Q9Y2K7)
Construct: isolated enzyme
Sequence (Q9Y2K7 1-517 limits assumed): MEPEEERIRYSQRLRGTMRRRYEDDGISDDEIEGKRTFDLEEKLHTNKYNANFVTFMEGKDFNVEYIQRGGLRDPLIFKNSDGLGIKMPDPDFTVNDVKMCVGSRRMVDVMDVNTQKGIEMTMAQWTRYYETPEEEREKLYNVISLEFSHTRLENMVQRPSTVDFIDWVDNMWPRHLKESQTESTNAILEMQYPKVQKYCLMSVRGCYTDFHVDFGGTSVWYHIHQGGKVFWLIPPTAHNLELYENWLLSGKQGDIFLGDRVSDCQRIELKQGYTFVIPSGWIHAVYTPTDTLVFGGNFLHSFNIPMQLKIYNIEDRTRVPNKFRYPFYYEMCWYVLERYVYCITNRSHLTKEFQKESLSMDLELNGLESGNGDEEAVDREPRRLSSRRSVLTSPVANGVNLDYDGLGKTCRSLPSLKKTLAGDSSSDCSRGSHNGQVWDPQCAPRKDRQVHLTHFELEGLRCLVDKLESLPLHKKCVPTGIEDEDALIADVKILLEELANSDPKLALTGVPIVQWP
assay_summary: biochemical
Design: RapidFire MS histone peptide demethylation assay
run_parameters: read-out: KDM2A RapidFire pIC50 (converted)
property_label: IC50 (µM)

> print(dat)
                                   molecule                          assay.target  numeric.readout
1  CC(=O)N1c2ccccc2[C@](C#N)(c2ccccc2)[C@H]1c1cncc(/C=C\CCCCCN2CCCC2)c1 (racemic)  KDM2A (Homo sapiens, UniProt Q9Y2K7)            0.838
2  CC(=O)N1c2ccccc2[C@](C#N)(c2ccccc2)[C@H]1c1cccc(OCCCCCCCN2CCCCC2)c1 (racemic)  KDM2A (Homo sapiens, UniProt Q9Y2K7)             1.07
3  CC(=O)N1c2ccccc2[C@](C#N)(c2ccccc2)[C@H]1c1cccc(OCCCCCCCCCN2CCCC2)c1 (racemic)  KDM2A (Homo sapiens, UniProt Q9Y2K7)             1.51
4  CC(=O)N1c2ccccc2[C@](C#N)(c2ccccc2)[C@H]1c1cccc(OCCCCCN2CCCC2)c1 (racemic)  KDM2A (Homo sapiens, UniProt Q9Y2K7)             1.25
5  CC(=O)N1c2ccccc2[C@](C#N)(c2ccccc2)[C@H]1c1cccc(OCCCCCCCN2CCOCC2)c1 (racemic)  KDM2A (Homo sapiens, UniProt Q9Y2K7)             3.26
